The reader will find reported Relative Bioavailability values listed item by item below.
System: Mus musculus
Experiment: Oral bioavailability in mouse at 40 mg/kg, po relative to AVP-13358
Assay type: ADME, organism-based
Settings: in vivo
endpoint: Relative Bioavailability

INSERT INTO assay_data (samplesmiles, datavalue) VALUES
  ('CC(=O)Nc1ccc(-c2nc3cc(C(=O)NC45CC6CC(CC(C6)C4)C5)ccc3[nH]2)cc1', '< 0.1'),
  ('O=C(Nc1ccc(-c2nc3cc(C(=O)NC45CC6CC(CC(C6)C4)C5)ccc3[nH]2)cc1)c1ccc(Cl)c(Cl)c1', '< 0.1'),
  ('CC(=O)OC12CC3CC(C1)CC(C(=O)Nc1ccc(-c4nc5cc(C(=O)Nc6ccccn6)ccc5[nH]4)cc1)(C3)C2', 0.35),
  ('O=C(Nc1ccccn1)c1ccc2[nH]c(-c3ccc(NC(=O)C45CC6CC(C4)C(=O)C(C6)C5)cc3)nc2c1', 0.5),
  ('O=C(Nc1ccccn1)c1ccc2[nH]c(-c3ccc(NC(=O)C45C[C@@H]6C[C@H](C4)[C@@H](O)[C@@H](C6)C5)cc3)nc2c1', '< 0.1'),
  ('O=C(NC12CC3CC(CC(C3)C1)C2)c1ccc2[nH]c(-c3ccc(NC(=O)C45CC6CC(CC(C6)C4)C5)cc3)nc2c1', '< 0.1'),
  ('O=C(NC1CCCCC1)c1ccc2[nH]c(-c3ccc(NC(=O)C45CC6CC(CC(C6)C4)C5)cc3)nc2c1', '< 0.1'),
  ('O=C(Nc1ccccn1)c1ccc2[nH]c(-c3ccc(NC(=O)C45C[C@@H]6C[C@H](C4)[C@H](O)[C@@H](C6)C5)cc3)nc2c1', '< 0.1');

----------
Test: Ex vivo inhibition of IgE production in spleen cells from antigen sensitized BALB/c mouse
Assay type: functional, cell-based
Reported IC50 by item:
endpoint: IC50 (nM)

INSERT INTO measurements (samplesmiles, endpoint, datavalue) VALUES
  ('O=C(Nc1ccccn1)c1ccc2[nH]c(-c3ccc(NC(=O)C45CC6CC(CC(C6)C4)C5)cc3)nc2c1', 'IC50', 3),
  ('O=C(Nc1ccccn1)c1ccc2[nH]c(-c3ccc(NC(=O)C45C[C@@H]6C[C@H](C4)[C@@H](O)[C@@H](C6)C5)cc3)nc2c1', 'IC50', 1),
  ('O=C(Nc1ccccn1)c1ccc2[nH]c(-c3ccc(NC(=O)C45CC6CC(C4)C(=O)C(C6)C5)cc3)nc2c1', 'IC50', 10),
  ('O=C(NC1CCCCC1)c1ccc2[nH]c(-c3ccc(NC(=O)C45CC6CC(CC(C6)C4)C5)cc3)nc2c1', 'IC50', 2);

----------
Test: Suppression of CD23 expression in IL4 and anti-CD40 antibody sensitized CD14-positive human peripheral blood lymphocytes
Conditions: Lymphocyte
pIC50: −log10 of the molar value.
endpoint: pIC50

INSERT INTO results (samplesmiles, datavalue) VALUES
  ('O=C(Nc1ccccn1)c1ccc2[nH]c(-c3ccc(NC(=O)C45CC6CC(CC(C6)C4)C5)cc3)nc2c1', 7.70);

----------
Assay: Ex vivo inhibition of IgE production in spleen cells from antigen sensitized BALB/c mouse
Assay type: functional, cell-based
endpoint: IC50 (nM)

INSERT INTO measurements (samplesmiles, endpoint, datavalue) VALUES
  ('CC(=O)Nc1ccc(-c2nc3cc(C(=O)NC45CC6CC(CC(C6)C4)C5)ccc3[nH]2)cc1', 'IC50', 25),
  ('CC(=O)OC12CC3CC(C1)CC(C(=O)Nc1ccc(-c4nc5cc(C(=O)Nc6ccccn6)ccc5[nH]4)cc1)(C3)C2', 'IC50', 1),
  ('O=C(Nc1ccccn1)c1ccc2[nH]c(-c3ccc(NC(=O)C45C[C@@H]6C[C@H](C4)[C@H](O)[C@@H](C6)C5)cc3)nc2c1', 'IC50', 1),
  ('O=C(Nc1ccc(-c2nc3cc(C(=O)NC45CC6CC(CC(C6)C4)C5)ccc3[nH]2)cc1)c1ccc(Cl)c(Cl)c1', 'IC50', 0.4),
  ('O=C(NC12CC3CC(CC(C3)C1)C2)c1ccc2[nH]c(-c3ccc(NC(=O)C45CC6CC(CC(C6)C4)C5)cc3)nc2c1', 'IC50', 1);
